Below, each of the variants is paired with its reported Hill coefficient n value.
B1: library; the commonest letter at each place (parent)
chain: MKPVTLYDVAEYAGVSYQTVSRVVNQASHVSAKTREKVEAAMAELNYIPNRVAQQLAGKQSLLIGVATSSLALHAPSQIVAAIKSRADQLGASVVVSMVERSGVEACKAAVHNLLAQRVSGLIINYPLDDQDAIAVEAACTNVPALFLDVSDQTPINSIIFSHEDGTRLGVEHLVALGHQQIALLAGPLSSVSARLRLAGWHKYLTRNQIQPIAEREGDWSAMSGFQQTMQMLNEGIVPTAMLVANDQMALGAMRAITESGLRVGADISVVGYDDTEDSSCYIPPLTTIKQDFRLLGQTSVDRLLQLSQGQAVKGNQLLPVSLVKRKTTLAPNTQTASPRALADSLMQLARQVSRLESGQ

- Variants of: B1
- assayProtocol: Hill coefficient n (dimensionless); higher = steeper dose response
- conditionSet: with IPTG
API note: the answer field is a bare number with no unit suffix.

[
  {
    "variantKey": "I83F",
    "Hill coefficient n": 1.43
  },
  {
    "variantKey": "V80L A87P V301M E357G",
    "Hill coefficient n": 1.15
  },
  {
    "variantKey": "G121V G261V",
    "Hill coefficient n": 1.58
  },
  {
    "variantKey": "S97T G200C",
    "Hill coefficient n": 1.65
  }
]

Lab note: measured Hill coefficient n of S97T V136E was 1.42

Source listed as the supplement of paper PMC10057847.
